# Test system: osteoclast formation
# PROTOCOL NOTES: Inhibition rate of furan derivatives versus osteoclast formation (TRAP staining)
# Format: cell-based, mice
# TEST CONTEXT: 10 μM; TRAP-positive multinucleated cells, untreated control set as 100%
Entries and their measured Inhibition rate against osteoclast formation, % follow.
Write it as a number; the unit % goes unstated.

MOLECULE: O=C(c1ccc(COc2cc(Cl)ccc2Cl)o1)N1CCCCCC1 [Compound 133]
VALUE REPORTED: 0.5

Query block: If you can, please state the reported Inhibition rate against osteoclast formation, % value of O=Cc1ccc(COC(=O)Cc2ccccc2)o1 [Compound 32] .
Result block: 50

Query block: # repeat for O=Cc1ccc(CO)o1 [Compound 1, 5-hydroxymethylfuran-2-carboxyaldehyde]
Result block: 30

Query block: # repeat for CC(C)OC(=O)c1ccc(COc2cc(Cl)ccc2Cl)o1 [Compound 95]
Result block: 0.97

Query block: # repeat for COc1ccc(C)cc1NC(=O)c1ccc(COc2cccc(Cl)c2)o1 [Compound 171]
Result block: 0.42

Query block: # repeat for O=Cc1ccc(COC(=O)Cc2ccc3ccccc3c2)o1 [Compound 38]
Result block: 20

Query block: # repeat for COC(=O)c1ccc(COc2ccc(Cl)c(C)c2)o1 [Compound 75]
Result block: 0.78

Query block: # repeat for COc1ccccc1OCc1ccc(C(=O)OC(C)C)o1 [Compound 94]
Result block: 5.9

Query block: # repeat for O=C(O)c1ccc(COc2ccccc2Cl)o1 [Compound 107]
Result block: 32

Query block: # repeat for O=Cc1ccc(COC(=O)Nc2ccccc2Cl)o1 [Compound 55]
Result block: 20

====

# System: osteoclast formation
# PROTOCOL NOTES: Inhibition rate of furan derivatives versus osteoclast formation (TRAP staining)
# Format: cell-based, mice
# TEST CONTEXT: 10 μM; TRAP-positive multinucleated cells, untreated control set as 100%
ASSAY READOUT: Inhibition rate against osteoclast formation, %

# example entries with known answers
SMILES TEXT: O=Cc1ccc(COC(=O)Nc2ccc(Cl)c(Cl)c2)o1
VALUE REPORTED: 10%

SMILES TEXT: COc1ccc(NC(=O)c2ccc(COc3ccccc3Br)o2)c(OC)c1
VALUE REPORTED: 7.6%

SMILES TEXT: O=Cc1ccc(COC(=O)Nc2ccc(Br)cc2)o1
VALUE REPORTED: 0%

Consider the record given below.
Query block: If you can, please state the reported Inhibition rate against osteoclast formation, % value of COC(=O)c1ccc(COc2cc(C)ccc2C(C)C)o1 .
Result block: 5.62%

src = patent US20080221205A1
